Tested on: MCF7 breast
Run description: NCI-60 one-dose screen, 48 h
Test conditions: 10 µM
Description: Growth inhibition of the MCF7 human tumor cell line is measured as a screen for anti-cancer activity. Cells are grown in 96 well plates and exposed to the test compound for 48 hours. Compounds are tested at a single concentration, which is 10^-5 M for most compounds. The reported endpoint is percent growth (GI% or GIPRCNT), where numbers from 0 - 100% represent growth inhibition, and numbers from -100% - 0 represent cell death. For example, a value of 40 represents 60% growth inhibition. […]
Compounds without any hit were thinned out: in the full panel of roughly 83,000, 20% have a hit. The source made the active and inactive calls. The calls were made as follows: active = growth percent below 10; inactive = the rest.
Outcome codes: active, inactive

- Molecular string: "CCOC(=O)C(=O)Cc1cccnn1"
  Label value: "inactive"
- Molecular string: "CC(C)c1[nH]nc2c(NCc3ccc(-c4ccccn4)cc3)nc(SCCN(C)C)nc12"
  Label value: "active"
- Molecular string: "Cc1cc(Nc2cccc(F)c2)nc(NCc2ccccc2)n1"
  Label value: "inactive"
- Molecular string: "COc1ccc(S(=O)(=O)Nc2cc(/C=C\\c3cc(OC)c(OC)c(OC)c3)ccc2OC)cc1"
  Label value: "active"
- Molecular string: "COc1ccccc1S(=O)(=O)Nc1ccc2c(c1)CN(C)C(=O)N2"
  Label value: "inactive"
- Molecular string: "CCCN(CCC)CCCNC(=O)c1cc2c(-c3ccc(OC)c(OC)c3)nn(C)c2s1"
  Label value: "inactive"
- Molecular string: "Cn1cnc([N+](=O)[O-])c1/C=C1\\Oc2ccc(Cl)cc2C1=O"
  Label value: "inactive"
- Molecular string: "O=C(NC1CCN(Cc2ccccc2)CC1)c1cc(-c2ccncc2)nc2ccc(Cl)cc12"
  Label value: "inactive"
- Molecular string: "CC1(C)CC(OCCCC[P+](c2ccccc2)(c2ccccc2)c2ccccc2)CC(C)(C)N1O"
  Label value: "active"
- Molecular string: "CC(=O)N(O)c1ccc(/C=C/c2ccccc2)cc1"
  Label value: "inactive"
